TGI values by entry
# Test system: MALME-3M melanoma
# methodNotes: NCI tumour cell line growth inhibition, 48 h

| compound | TGI |
| --- | --- |
| C[N+]1(CCN=C=NC2CCCCC2)CCOCC1 | > 100 µM |
| CON(C)C(=O)C(C)NC(=O)OCc1ccccc1 (stereo unspecified) | > 100 µM |
| CCC1(Br)C(=O)NC(=O)N(C2CC(O)C(CO)O2)C1N=[N+]=[N-] (stereo unspecified) | > 100 µM |
| COC(=O)c1ccc2c(c1)C(NC(C)=O)CCc1cc(OC)c(OC)c(OC)c1-2 (stereo unspecified) | > 100 µM |
| CCOc1ccc(N=Nc2ccc3cc(/C(C)=N/NC(=O)/C(C#N)=C\c4ccc(N(CCC#N)CCC#N)cc4)c(=O)oc3c2)cc1 | > 10 µM |
| CC1(C)CCC(C)(C)c2cc(C(=O)Nc3ccc(C(=O)O)cc3)ccc21 | > 100 µM |
